Ref: ChEMBL document CHEMBL1961873

- Target of assay: Serine/threonine-protein kinase MRCK beta (Homo sapiens) (UniProt Q9Y5S2);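 further: values are mean percent inhibition of MRCKB, screened as part of the GSK PKIS kinase inhibitor set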
- Sequence (Q9Y5S2 whole entry): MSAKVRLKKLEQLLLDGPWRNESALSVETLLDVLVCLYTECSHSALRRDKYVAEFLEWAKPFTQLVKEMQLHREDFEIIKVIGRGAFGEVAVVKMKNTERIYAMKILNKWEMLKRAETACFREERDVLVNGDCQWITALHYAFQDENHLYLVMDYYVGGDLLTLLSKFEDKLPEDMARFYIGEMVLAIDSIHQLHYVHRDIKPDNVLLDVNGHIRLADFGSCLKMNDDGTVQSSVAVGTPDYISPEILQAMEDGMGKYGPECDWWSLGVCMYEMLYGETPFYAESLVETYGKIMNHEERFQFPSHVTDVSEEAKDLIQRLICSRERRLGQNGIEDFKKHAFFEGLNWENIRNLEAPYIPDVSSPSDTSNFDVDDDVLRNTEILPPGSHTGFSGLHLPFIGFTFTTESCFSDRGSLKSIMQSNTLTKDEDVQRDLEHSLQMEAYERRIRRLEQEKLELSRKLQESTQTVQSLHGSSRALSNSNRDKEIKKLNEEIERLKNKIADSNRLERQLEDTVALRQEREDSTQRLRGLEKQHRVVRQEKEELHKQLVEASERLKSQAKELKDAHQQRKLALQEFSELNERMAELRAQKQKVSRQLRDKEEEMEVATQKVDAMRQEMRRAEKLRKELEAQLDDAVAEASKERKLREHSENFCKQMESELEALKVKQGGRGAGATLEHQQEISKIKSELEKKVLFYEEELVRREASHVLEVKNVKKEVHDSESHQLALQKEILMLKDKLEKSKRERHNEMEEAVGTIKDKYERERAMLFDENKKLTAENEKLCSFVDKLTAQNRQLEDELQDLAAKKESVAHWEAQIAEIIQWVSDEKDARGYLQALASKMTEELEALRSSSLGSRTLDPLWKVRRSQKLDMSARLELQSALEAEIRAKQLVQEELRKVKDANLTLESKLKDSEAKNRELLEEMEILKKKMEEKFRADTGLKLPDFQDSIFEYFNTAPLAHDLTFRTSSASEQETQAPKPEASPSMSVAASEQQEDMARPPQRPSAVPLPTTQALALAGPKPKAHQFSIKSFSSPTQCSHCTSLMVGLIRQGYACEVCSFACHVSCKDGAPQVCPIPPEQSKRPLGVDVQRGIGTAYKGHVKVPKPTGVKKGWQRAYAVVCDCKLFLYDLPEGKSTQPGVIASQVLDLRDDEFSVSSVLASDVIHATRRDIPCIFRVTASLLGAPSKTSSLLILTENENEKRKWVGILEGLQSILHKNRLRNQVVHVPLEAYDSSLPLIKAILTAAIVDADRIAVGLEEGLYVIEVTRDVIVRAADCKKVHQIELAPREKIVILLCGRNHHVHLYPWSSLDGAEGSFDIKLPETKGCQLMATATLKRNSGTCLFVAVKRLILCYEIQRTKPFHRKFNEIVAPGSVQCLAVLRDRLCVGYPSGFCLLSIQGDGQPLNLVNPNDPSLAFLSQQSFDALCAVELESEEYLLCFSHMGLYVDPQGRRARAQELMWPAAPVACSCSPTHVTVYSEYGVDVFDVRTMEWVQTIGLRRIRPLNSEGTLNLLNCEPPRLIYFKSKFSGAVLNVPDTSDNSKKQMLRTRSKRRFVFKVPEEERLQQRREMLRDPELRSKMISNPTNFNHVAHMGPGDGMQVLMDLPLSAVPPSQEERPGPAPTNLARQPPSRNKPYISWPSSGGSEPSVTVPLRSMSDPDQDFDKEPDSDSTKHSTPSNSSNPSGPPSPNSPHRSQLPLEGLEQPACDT
- Run parameters: at 0.1 µM
Recorded inhibition values for a group of molecules are listed next.
For clarity, give the value followed by its unit.

Worked set:
| Input smiles | inhibition |
| --- | --- |
| CCc1cccc(NC(=O)Nc2ccc(Oc3ccc4nc(NC(=O)OC)[nH]c4c3)cc2)c1 | 0.03% |
| CS(=O)(=O)CCNCc1ccc(-c2ccc3ncnc(Nc4ccc(OCc5cccc(F)c5)c(C(F)(F)F)c4)c3c2)o1 | -0.15% |

Notebook: COc1cc2c(cc1Nc1nc(N3CCc4ccccc43)c3cc[nH]c3n1)N(C(=O)CN(C)C)CC2 , inhibition read as 0.86%

Notebook: NCc1ccc(-c2nc(-c3ccc(Cl)c(O)c3)c(-c3ccncc3)[nH]2)cc1 , inhibition read as -1.19%

Notebook: COc1ccc(-c2nn3ncccc3c2-c2ccnc(Nc3ccc(Cl)c(C(F)(F)F)c3)n2)cc1 , inhibition read as -1.37%

Notebook: CCn1c(-c2nonc2N)nc2cnc(Oc3cccc(NC(=O)c4ccc(OCCN5CCOCC5)cc4)c3)cc21 , inhibition read as 17.8%

Notebook: CCn1c(-c2nonc2N)nc2c(C#CC(C)(C)O)nc(CN3CCCC3)cc21 , inhibition read as 1.98%

Notebook: [O-][S+]1CCN(Cc2ccc(-c3ccc4ncnc(Nc5ccc(OCc6ccccc6)c(F)c5)c4c3)o2)CC1 , inhibition read as -0.5%

Notebook: COc1cc2ncn(-c3cc(O[C@H](C)c4ccccc4Cl)c(C(N)=O)s3)c2cc1OC , inhibition read as 0.35%

Notebook: CN1CCC(C(=O)Nc2n[nH]c3nnc(-c4ccccc4)cc23)CC1 , inhibition read as -0.23%
